Listed here are variants together with their documented self-cleavage.
B1: OR4K15 (parent)
chain: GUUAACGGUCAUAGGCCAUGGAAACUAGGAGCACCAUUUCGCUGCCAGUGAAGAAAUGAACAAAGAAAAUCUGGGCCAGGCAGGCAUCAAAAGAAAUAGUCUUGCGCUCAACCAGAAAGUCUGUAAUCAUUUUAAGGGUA

Variants of: B1
Test: self-cleavage, relative activity (ratio to wild type); higher = more cleavage; in vitro, sequencing; the parent is a self-cleaving ribozyme
Answer field: number only, no words.

Check out these entries, answers already filled in.
MUTANT LABEL: U12A A36G
self-cleavage: 1.05
//
MUTANT LABEL: U43C U102C
self-cleavage: 2.15
//
MUTANT LABEL: A18G G73U
self-cleavage: 0.23
//
MUTANT LABEL: A13G A51G
self-cleavage: 0.85
//
MUTANT LABEL: A62U U102C
self-cleavage: 1.91

# lookup: self-cleavage of U70A A94G
0.72

Requested read-out: self-cleavage. Entry: U57A U133C
1.08
